Please respond with reported cell count for every item in the list.
# test.summary: supercomplex reporter luminescence per Hoechst cell count – Hoechst nuclei count (AID 1645838);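 note: control cybrid cells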
# measurement.conditions: Cells, luminescence/Hoechst cell count ratio, measured here: cell number, Hoechst nuclei count, library stock concentration (final well concentration not given) 10 mM
Screen size: about 2,000 compounds; about 100 (5%) were called active. The sample holds actives, similar compounds and a random draw of the others, so the mix is not that of the screen.
Numbers only.

See these solved cases before continuing.
compound="CC(CSC(=O)c1ccccc1)C(=O)N1CC(Sc2ccccc2)CC1C(=O)O (stereo unspecified)" value_reported=6110
compound="O=C(Nc1ccccc1)Nc1ccc(-c2ccc(C(=O)C3CCCC3C(=O)O)cc2)cc1 (stereo unspecified)" value_reported=5760
compound=Cc1ccc(C(=O)Nc2cccc(C(F)(F)F)c2)cc1Nc1cncc(C(N)=O)c1 value_reported=4410
compound=Cc1nc2ccc(-n3ncc(C(=O)c4cc5ccccc5[nH]4)c3N)cc2[nH]1 value_reported=3410
compound=O=C(Cc1cccc(OC(F)(F)F)c1)Nc1ccc(CCCCc2nnc(NC(=O)Cc3ccccn3)s2)nn1 value_reported=3940

Parameter requested: cell count. Apply to each item below.
1. CCCCCc1ccc(C=CC(=O)Nc2ccccc2C(=O)O)cc1
2. CC(C)c1ccccc1OC(=O)NCCc1ccc2ccccc2c1
3. O=C(O)C1CCC(c2cc3cccnc3c(-c3cccc(F)c3)n2)CC1 (stereo unspecified)
4. CC(Sc1nc2ccccc2[nH]1)C(=O)NN=Cc1cc(Br)ccc1O (stereo unspecified)
5. NC(N)=NN=Cc1ccc(Cl)c(Cl)c1
6. CCC(=C(CC)c1ccc(O)cc1)c1ccc(O)cc1

Response given:
1. 6620
2. 5910
3. 6420
4. 3080
5. 4260
6. 5450
